assayNotes: AUC in ICR mouse at 1 mg/kg, iv measured for 24 hrs by LC-MS/MS analysis
Format: ADME, organism-based
Design: time 24 hrs, dose 1 mg/kg, route iv
testConditions: in vivo
measuredEndpoint: AUC at 24 h
Just so you know, I need the unit written after the number.

Exam item: Request the reported AUC at 24 h associated with "COc1cc(/N=C(\N)N2CCN(c3cnc(-c4cccc(Cl)c4Cl)c(N)n3)CC2)ccc1C#N"
Marked response: 0.651 µM·h

---

assayNotes: Tmax in ICR mouse at 10 mg/kg, po measured for 24 hrs by LC-MS/MS analysis
Assay type: ADME, organism-based
testConditions: in vivo
measuredEndpoint: Tmax
Form entry: enter the amount, then its unit.

Exam item: Can you share its Tmax? I mean this compound: "COc1cc(/N=C(\N)N2CCN(c3cnc(-c4cccc(Cl)c4Cl)c(N)n3)CC2)ccc1C#N"
Marked response: 48 min
